# target.or.system: recombinant pentameric gH complex (Towne strain) (human cytomegalovirus, Towne strain) (UniProt P17176)
# Sequence (P17176 30-715, one chain of several): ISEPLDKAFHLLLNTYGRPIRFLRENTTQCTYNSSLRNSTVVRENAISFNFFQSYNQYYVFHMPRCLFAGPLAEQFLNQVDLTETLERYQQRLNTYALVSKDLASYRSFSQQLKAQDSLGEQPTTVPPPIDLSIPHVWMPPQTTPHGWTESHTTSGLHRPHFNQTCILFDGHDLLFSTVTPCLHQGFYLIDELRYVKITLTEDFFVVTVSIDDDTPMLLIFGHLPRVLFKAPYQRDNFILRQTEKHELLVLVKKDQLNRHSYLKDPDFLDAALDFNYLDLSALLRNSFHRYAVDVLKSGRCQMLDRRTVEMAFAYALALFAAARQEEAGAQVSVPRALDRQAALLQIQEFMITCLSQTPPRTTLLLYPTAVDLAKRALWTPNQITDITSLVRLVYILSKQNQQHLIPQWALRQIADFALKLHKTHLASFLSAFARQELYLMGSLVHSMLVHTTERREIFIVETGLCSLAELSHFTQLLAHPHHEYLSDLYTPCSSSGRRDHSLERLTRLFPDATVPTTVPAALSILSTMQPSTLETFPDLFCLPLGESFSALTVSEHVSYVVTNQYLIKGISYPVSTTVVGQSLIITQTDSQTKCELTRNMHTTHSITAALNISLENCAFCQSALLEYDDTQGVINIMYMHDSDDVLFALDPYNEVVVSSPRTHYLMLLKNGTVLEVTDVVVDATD
# assay.info: BLI competition on His-pentamer; competitor (antibody 2): 1-32
binders and their reported Pair-wise inhibition (%)
Dear colleague, please return just the value in %, with no unit written.

The following binders have reported results that may help.
Please give the measured Pair-wise inhibition (%) for this binder: 1-85 (antibody, V domains shown) VH: QVHLVESGGGLVKPGRSLRLSCAASGFTFSDYYMAWIRQVPGKGLEWVSFISSSGRTIYYADSVKGRFTISRDNAKDSLYLQMHSLRAEDTAVYYCARDSYSKLVDIEAIEAFDIWGRGTMVTVSS VL: SYELAQPPSVSVAPGKTATIACGGDNIGGKSVHWYLQKAGQAPVLVISYDSDRPSGIPERFSGSNSGNTATLTISRVEAGDEADYFCQVWDRHGDHVVFGGGTKLTVL
16

Please give the measured Pair-wise inhibition (%) for this binder: 2-25 (antibody, V domains shown) VH: QVQLVESGAEVKKPGALVKVSCKASGYTFTNYAIHWVRQASGQRLEWMGWINAGRGNTKYSQKFQGRVTITRDTSASTAYMELSSLRSEDAAVYFCARDESTGDYYYYMDVWGKGTTVTVSS VL: SYELTQPPSVSVSPGQTASITCSGDRLDDKYASWYQQKAGQSPVLVIYQDNKRPSGIPERFSGSNSGNTATLTISGTQAMDEADYYCQAWDSDTYVFGTGTKVTVL
2

Please give the measured Pair-wise inhibition (%) for this binder: 1-32 (antibody, V domains shown) VH: QVKLVESGGGVVQPGRSLRLSCAGSGFAFDNYAMHWVRQAPGKGLEWVAVISLEGRNKYYAGPAKGRFSISRDNSRNTVHLQMNSLRPEDTAVYFCARDMRYYYDSNGHYRNRYGMDVWGQGTTVIVSS VL: DIQMTQSPSSLSASVGDSVTITCQASQDINQFVSWYQQKPGKPPKLLIYDASNLESGVPSRFSGSGSGTHFTFTISSLQPDDIATYYCQQYENLFTFGPGTKVDIK
91

Please give the measured Pair-wise inhibition (%) for this binder: 1-150 (antibody, V domains shown) VH: QVQLVESGGGLVKPGGSLRLSCAASGFSFSAYYMSWIRQAPGKGLEWISYISSSGNTIYYTDSVKGRFTIARDNAKNSLYLQMNSLRAEDTGLYYCARDSYSKLADIEATEAFDVWGQGTMVAVSS VL: SYELTQPPSVSVAPGKTARITCGGNNIGSKSVHWYQQKPGQAPVMVIYYDSDRPSGIPERFSGSNSGNTATLTISRVEAGDEADYYCQVWDSGSDRVVFGGGTKLTVL
-11

Continuing:
Please give the measured Pair-wise inhibition (%) for this binder: 3-7 (antibody, V domains shown) VH: QVQLVQSGAEVKKPGASVKVSCKTSGYTFNTYAISWVRQAPGQGLEWVGWINTYSGSTKYAQKVQGRVTMTTDTSTSTAYMELRGLRSDDTAVYYCARDGYNWGFLDFWGQGSLVTVSS VL: DIQMTQSPSSLSASVGDRVTITCRASQGISNYLAWYQQKPGKLPKLLIYAASTLQSGVPSRFSGSGSGTDFTLTISSLQPEDVASYYCQKYNSAPLTFGPGTKVDIK
10
